B1: library; numbered along this chain (parent)
chain: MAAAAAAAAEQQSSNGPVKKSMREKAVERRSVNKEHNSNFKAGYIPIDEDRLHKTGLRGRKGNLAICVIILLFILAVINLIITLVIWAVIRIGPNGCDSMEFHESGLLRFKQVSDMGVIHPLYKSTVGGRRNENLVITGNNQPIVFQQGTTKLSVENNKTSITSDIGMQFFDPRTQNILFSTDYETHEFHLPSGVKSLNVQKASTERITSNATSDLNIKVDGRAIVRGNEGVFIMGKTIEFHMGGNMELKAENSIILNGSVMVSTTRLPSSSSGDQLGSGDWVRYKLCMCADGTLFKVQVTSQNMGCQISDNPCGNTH

Variants of: B1
Test: SGCB cell-surface expression functional score (HA stain, bin4 vs bin1, normalised to synonymous) (log10 ratio); higher = more cell-surface SGCB (functional)
experimental_readout: SGCB cell-surface expression functional score (log10)
No unit in the answer, only the number.

L249P | -0.41
H187M | -0.22
G194M | -1.78

Given item S193G , the value recorded as its SGCB cell-surface expression functional score (log10) is 0.24
